Reported values of inhibition at 10 µM for individual entries
- System: MOLT-4
- Method: NCI growth inhibition (SRB) assay
- Assay type: cell-based
- Assay Conditions: Homo sapiens, MOLT-4, Leukemia, single dose 10 µM, 48 h, read-out: Percent Growth Inhibition (GI)
Give a bare numeral; the unit % is implied.

Sample answers from the record:
INSERT INTO measurements (sample_smiles, unit_text, endpoint_result) VALUES
  ('COc1ccc(Oc2nc(Nc3ccc(N4CCOCC4)cc3)ncc2NC(=O)c2cc(OC)c(OC)c(OC)c2)cc1', '%', 31.6),
  ('COc1ccc(Oc2nc(Nc3ccc(N4CCOCC4)cc3)ncc2NC(=O)Cc2cc(OC)cc(OC)c2)cc1', '%', -0.81);

Need inhibition at 10 µM, item COc1ccc(Oc2nc(Nc3ccc(N4CCOCC4)cc3)ncc2NC(=O)c2ccnc([N+](=O)[O-])c2)cc1
-5.98

Need inhibition at 10 µM, item COc1ccc(Oc2nc(Nc3ccc(N4CCOCC4)cc3)ncc2NC(=O)c2ccc(OC)c(OC)c2)cc1
19.9

Need inhibition at 10 µM, item CCOc1cc(OCC)cc(C(=O)Nc2cnc(Nc3ccc(N4CCOCC4)cc3)nc2Oc2ccc(OC)cc2)c1
38.2

Need inhibition at 10 µM, item COc1ccc(Oc2nc(Nc3ccc(N4CCOCC4)cc3)ncc2NC(=O)c2ccc3c(c2)OCO3)cc1
31.1

Need inhibition at 10 µM, item COc1ccc(Oc2nc(Nc3ccc(N4CCOCC4)cc3)ncc2NC(=O)c2cccc(SC)c2)cc1
43.1
